Measured Growth Rate accompanies every entry in the list below.
# System: HEK-293T
# assay summary: Incucyte cell viability with HEK293T; note: unitless GR value; below 1 slowed growth and below 0 cell loss
# Format: toxicity, cell-based
# cond: human, 6 h, 10 µM, compound concentration 10 uM, replicate number 1
Form: value (number only, do not type unit).

Here's what some known entries look like.
Request: Find the recorded Growth Rate belonging to CCOC(=O)c1cncn1[C@H](C)c1ccccc1 [ETOMIDATE] and report it.
Response: 0.68

Request: Also "Cc1c[nH]c(-c2cnc(NCCNc3ccc(C#N)cn3)nc2-c2ccc(Cl)cc2Cl)n1" ?
Response: 0.35

Request: Also CC(=O)N1CCN(c2ccc(OCC3COC(Cn4ccnc4)(c4ccc(Cl)cc4Cl)O3)cc2)CC1 (centres undefined) ?
Response: -0.34

Continuing:
Request: Find the recorded Growth Rate belonging to "O=C(NCCN1CCOCC1)c1ccc2nn(CCOc3ccc(Cl)cc3)cc2c1" and report it.
Response: 0.47

Request: Also "O=C(Nc1ccc(Cl)c(-c2ccccn2)c1)c1cccc(COc2ccc(Br)cc2CNCCO)c1.O=CO" ?
Response: -0.57

Request: Also "Cc1c(NC(=O)c2cccn(-c3ccc(F)cc3)c2=O)ccc(Oc2ccnc(NC(=O)C3CC3)c2)c1C" ?
Response: 0.59

Request: Also "CC(C)(O)c1ccc2c(c1)ncn2-c1cccc(-c2ccccc2C#N)c1" ?
Response: 0.78

Request: Also "O=C1NCCSc2c1sc1ccc(O)cc21" ?
Response: -0.48

Request: Also "COc1cc(-c2cc(-c3cccc(O)c3)cnc2N)cc(OC)c1OC" ?
Response: -0.66

====

# Tested on: Fibroblast
# assay summary: Incucyte cell viability with human fibroblast; note: unitless GR value; below 1 slowed growth and below 0 cell loss
# Format: toxicity, cell-based
# cond: 12 h, 10 µM, compound concentration 10 uM, replicate number 2
# note: boundary value 0.7 maps to n; Growth Rate below it maps to y

Request: Given the entry "C[C@@H]1C[C@H](C)CN(c2ncc(Cl)c(Nc3ccc4c(c3)cc(OC(C)(C)C(=O)O)c(=O)n4C)n2)C1" , would its reported Growth Rate be below 0.7?
Response: y

Request: Also "Cc1c(NC(=O)c2ccc(C(C)(C)C)cc2)cccc1-c1cn(C)c(=O)c(Nc2ccc(C(=O)N3CCOCC3)cc2)n1" ?
Response: y

Request: Also "Cc1nnc2n1-c1sc3c(c1C(c1ccccc1Cl)=NC2)C[C@@H](C(=O)N1CCOCC1)C3" ?
Response: n

Request: Also "c1ccc(C2CCN(c3cnc4c(N5CCOCC5)nccn34)CC2)cc1" ?
Response: y

Request: Also NC(=O)C1CCCc2c1[nH]c1ccc(Cl)cc21 (centres undefined) ?
Response: n

Request: Also "C=C(F)C(=O)N1CCN(c2nc(OC[C@@H]3CCCN3C)nc3c2CCN(c2cccc4cccc(Cl)c24)C3)C[C@@H]1CC#N" ?
Response: y

Request: Also COc1ccc(COc2ccc(Cc3cnc(N)nc3N)cc2OC)cc1 [GW632580X] ?
Response: y

Request: Also CCCCCN1C(=O)C2(COc3cc4c(cc32)OCO4)c2ccccc21 (centres undefined) ?
Response: n

====

# Test system: HEK-293T
# assay summary: Incucyte cell viability with HEK293T; note: unitless GR value; below 1 slowed growth and below 0 cell loss
# Format: toxicity, cell-based
# cond: human, 12 h, 10 µM, compound concentration 10 uM, replicate number 1
Outcome: True for Growth Rate of at least -0.06; False for anything lower.

See these solved cases before continuing.
Request: Growth Rate >= -0.06 for "CC(=O)Nc1nc(C)c(S(=O)(=O)Nc2ccc(C(O)(C(F)(F)F)C(F)(F)F)cc2)s1" ?
Response: True

Request: Also "CN[C@@H](C)C(=O)N[C@H](C(=O)N1CCC[C@H]1C(=O)N[C@H]1c2ccccc2C[C@H]1OCC#CC#CCO[C@@H]1Cc2ccccc2[C@@H]1NC(=O)[C@@H]1CCCN1C(=O)[C@@H](NC(=O)[C@H](C)NC)C1CCCCC1)C1CCCCC1" ?
Response: False

Alright, here's another compound for you.
Request: Growth Rate >= -0.06 for "C[C@@H]1CC(=O)N(C2CC2)N=C1c1ccc(NC(=O)N2Cc3ccncc3C2)cc1" ?
Response: True
